measurementNotes: NCI Yeast Anticancer Drug Screen. Data for the mlh1 rad18 strain (AID 175)
runConditions: S. cerevisiae mlh1 rad18 strain growth inhibition; at 50.0 µM; stronger effect = higher value
The panel holds about 79,000 compounds, 15% with a hit somewhere; the sample as a whole holds those more often. Where a SMILES comes first, the peptide text is derived from it. [ ]: non-standard residue; d: D form. The star is where a group is joined. ξ: configuration not given here. ξD = NC(CC(=O)O)C(=O)O; Boc = CC(C)(C)OC(=O)*; Aib = CC(C)(N)C(=O)O; OtBu = CC(C)(C)O*
Would you mind telling me the reported growth inhibition of each entry?
Answers are plain numbers, in %.

{"columns": ["compound", "growth inhibition / %"],
 "data": [
  ["CC(C)(C)[C@@H]1NC(=O)CN1C(=O)OCc1ccccc1", -11.1]
]}

Hi, could you look up growth inhibition for each item in my list?
1. COC1CC(NC(=O)c2ccccc2)C(O)C(C)O1 (stereo unspecified)
2. COc1ccc(CCNC(=O)Cc2cc(OCc3ccccc3)c(OC)cc2[N+](=O)[O-])cc1OC
3. COC(=O)Cc1cccc2c(=O)c(S(=O)(=O)NC(=O)Nc3ccc(Cl)cc3)c(-c3ccccc3)oc12
4. C=CCNC(=O)C[n+]1cccc(C(=O)NC)c1
5. Cc1nnc(Nc2ccc(Cl)c(Cl)c2)s1
6. CC(=O)Nc1cc2cc(N=CN(C)C)ccc2oc1=O
7. COC(=O)C(C)(C)NC(=O)C(C)(C)NC(=O)C(CC(=O)OC(C)(C)C)NC(=O)OC(C)(C)C (stereo unspecified) (Boc-[ξD](OtBu)-[Aib]-[Aib]-OMe)
8. NC(=O)c1ccc(S(=O)(=NS(=O)(=O)c2ccccc2)c2ccc(C(N)=O)cc2)cc1

a:
8.5
6.9
17.8
-17.8
4.75
-7.4
-28.7
-1.6

Hi, could you look up growth inhibition for each item in my list?
1. COc1cc([C@H]2CC(=O)C[C@H](c3cc(OC)c(OC)c(OC)c3)C23C(=O)c2ccccc2C3=O)cc(OC)c1OC
2. CCC(C)(C)C1CCCCC1OC(C)=O (stereo unspecified)

a:
1: 7; 2: 1.25

---

measurementNotes: NCI Yeast Anticancer Drug Screen. Data for the sgs1 mgt1 strain (AID 161);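 note: 0% = growth of cultures given vehicle only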
runConditions: S. cerevisiae sgs1 mgt1 strain, at 50.0 µM, stronger effect = higher value
Description: Growth inhibition of yeast strains with defined genetic alterations is measured as a screen for potential anti-cancer activity. Selected strains with alterations in DNA damage repair or cell cycle control were exposed to compounds and growth inhibition was measured relative to vehicle treated controls. The strain used in this assay is sgs1 mgt1
The panel holds about 79,000 compounds, 15% with a hit somewhere; the sample as a whole holds those more often.
endpoint: growth inhibition (%)
One number for each entry, in %.

Hi, could you look up growth inhibition for each item in my list?
1. C[C@H](N)C(O)/C=C/c1ccccc1 (some centres undefined)
2. CN1CCC(CNc2ccccc2)CC1
3. CC(NC(=O)NCCCl)C1CC1 (centres undefined)
4. CCn1c(SCC(=O)N/N=C/c2ccccc2)nc2ccccc2c1=O
5. COc1ccc(C2SCC(=O)N2NC(=O)c2ccc(NC(C)=O)cc2)cc1 (centres undefined)
6. CCCCNCC1C(O)CCC2CN3CCc4c([nH]c5ccccc45)C3CC21 (centres undefined)

a:
-0.7
6.05
-4.75
3.8
-62.5
11.3

Hi, could you look up growth inhibition for each item in my list?
1. CN(C)c1ccc(SC2OC(CO)C(O)C(O)C2O)cc1 (centres undefined)
2. COc1cccc(C2c3cc4c(cc3OC(N3CCOCC3)C2C)OCO4)c1OC (centres undefined)
3. O=C(c1ccccc1)C(c1ccccc1)n1nc2c(c1-c1ccccc1)CCCC2 (centres undefined)

a:
1: -7.3; 2: -7.85; 3: 83.9

The values you see were collected from PubChem BioAssay (NCI).
